The reported measurements were obtained from patent US20060079696A1.

# system-name: hPPARδ (Homo sapiens, UniProt Q03181)
# Construct: fragments of DNA amplified by PCR corresponding to the DEF domains of the human PPARα, PPARγ PPARδ nuclear receptors; expressed in transfected cells; host or cells: COS-7 (monkey kidney fibroblast line)
# Sequence (Q03181 211-439 limits assumed): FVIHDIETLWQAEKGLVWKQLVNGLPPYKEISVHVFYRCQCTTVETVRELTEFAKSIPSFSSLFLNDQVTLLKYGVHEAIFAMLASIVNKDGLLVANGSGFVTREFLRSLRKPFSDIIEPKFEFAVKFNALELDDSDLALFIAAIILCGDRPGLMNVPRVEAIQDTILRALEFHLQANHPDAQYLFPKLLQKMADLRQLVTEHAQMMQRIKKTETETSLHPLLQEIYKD
# assay-text: Gal4-hPPARδ chimera transactivation in COS-7 cells (luciferase)
# Assay type: cell-based
# experimental-conditions: induction factor standardised to an internal reference, read-out: % hGal4-PPAR transactivation (10 μM) delta
assay-metric: activation at 10 µM

Field: activation at 10 µM (hPPARδ (Homo sapiens, UniProt Q03181)). Entry: CCCCC(NC(=O)Cc1ccc(OC(C)(C)C(=O)NS(C)(=O)=O)cc1)c1ccccc1OC (stereo not shown)
< 10%

Ok, now CCCCC(NC(=O)Cc1ccc(OCC(C)(C)C(=O)O)cc1)c1ccccc1N1CCCCC1 (stereo not shown)
< 10%

Ok, now CCCCC(NC(=O)Cc1ccc(OC(C)(C)C(=O)O)cc1)c1ccccc1OCC(C)C (stereo not shown)
< 10%

Ok, now CCCCC(NC(=O)Cc1ccc(OC(C)(C)C(=O)O)cc1)c1ccc(Br)cc1N1CCCCC1 (stereo not shown)
23%

Ok, now CC(C)CC(NC(=O)Cc1ccc(OC(C)(C)C(=O)O)cc1)c1ccc(-c2ccccc2)cc1N1CCCCC1 (stereo not shown)
24%

Ok, now CCCCC(NC(=O)Cc1ccc(OC(C)(C)C(=O)NS(=O)(=O)C(F)(F)F)cc1)c1ccccc1N1CCCCC1 (stereo not shown)
< 10%

Ok, now CC(NC(=O)Cc1ccc(OC(C)(C)C(=O)O)cc1)c1ccccc1N1CCCCC1 (stereo not shown)
< 10%

###

Exercise: state measured inhibition at 0.3 µM for each of the compounds provided.
# system-name: ATP-dependent potassium channels (K+ATP) (Rattus norvegicus)
# Construct: the potassium channels derive from a rat's cerebral cortex; tissue CEREP; host or cells: rat cerebral cortex
# Sequence (Q09429 whole entry): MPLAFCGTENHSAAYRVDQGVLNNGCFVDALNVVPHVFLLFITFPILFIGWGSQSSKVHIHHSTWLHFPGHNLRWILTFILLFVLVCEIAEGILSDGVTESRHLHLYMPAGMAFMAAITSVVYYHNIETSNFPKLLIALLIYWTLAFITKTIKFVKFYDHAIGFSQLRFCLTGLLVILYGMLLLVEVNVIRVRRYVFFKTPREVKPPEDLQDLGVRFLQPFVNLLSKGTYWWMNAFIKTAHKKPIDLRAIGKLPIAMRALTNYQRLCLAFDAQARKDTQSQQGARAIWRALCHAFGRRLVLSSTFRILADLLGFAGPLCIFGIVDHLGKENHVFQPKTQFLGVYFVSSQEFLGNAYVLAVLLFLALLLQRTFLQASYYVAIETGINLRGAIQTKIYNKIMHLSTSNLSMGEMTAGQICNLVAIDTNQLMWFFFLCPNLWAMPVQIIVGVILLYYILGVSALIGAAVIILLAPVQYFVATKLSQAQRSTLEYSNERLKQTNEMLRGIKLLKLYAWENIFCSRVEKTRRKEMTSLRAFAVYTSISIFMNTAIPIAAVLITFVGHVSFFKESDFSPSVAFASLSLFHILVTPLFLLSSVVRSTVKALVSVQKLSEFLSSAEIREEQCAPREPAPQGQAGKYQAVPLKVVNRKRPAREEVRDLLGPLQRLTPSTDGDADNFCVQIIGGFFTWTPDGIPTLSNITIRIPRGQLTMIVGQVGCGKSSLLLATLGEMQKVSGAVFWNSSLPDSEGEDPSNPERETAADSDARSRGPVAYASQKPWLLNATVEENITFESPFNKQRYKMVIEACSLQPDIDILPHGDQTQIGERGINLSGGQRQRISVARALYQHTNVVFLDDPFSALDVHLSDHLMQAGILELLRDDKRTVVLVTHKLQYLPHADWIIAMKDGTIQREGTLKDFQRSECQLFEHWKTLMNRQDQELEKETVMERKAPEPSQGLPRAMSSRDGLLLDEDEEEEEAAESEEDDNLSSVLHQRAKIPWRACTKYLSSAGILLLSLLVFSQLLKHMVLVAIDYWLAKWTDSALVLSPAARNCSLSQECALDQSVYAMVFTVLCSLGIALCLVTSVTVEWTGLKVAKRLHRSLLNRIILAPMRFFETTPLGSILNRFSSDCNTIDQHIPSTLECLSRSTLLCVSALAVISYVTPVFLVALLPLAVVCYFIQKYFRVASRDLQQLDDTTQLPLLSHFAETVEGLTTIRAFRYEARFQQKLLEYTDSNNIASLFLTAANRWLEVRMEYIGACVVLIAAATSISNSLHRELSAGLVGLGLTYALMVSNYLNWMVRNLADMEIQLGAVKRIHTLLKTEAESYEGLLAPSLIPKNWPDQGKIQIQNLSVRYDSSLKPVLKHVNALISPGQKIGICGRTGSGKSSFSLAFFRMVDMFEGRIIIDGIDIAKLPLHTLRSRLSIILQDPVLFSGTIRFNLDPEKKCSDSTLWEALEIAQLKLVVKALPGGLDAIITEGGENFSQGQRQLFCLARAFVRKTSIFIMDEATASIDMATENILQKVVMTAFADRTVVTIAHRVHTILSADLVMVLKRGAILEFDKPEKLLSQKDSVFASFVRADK
# Sequence (P70673 whole entry partner): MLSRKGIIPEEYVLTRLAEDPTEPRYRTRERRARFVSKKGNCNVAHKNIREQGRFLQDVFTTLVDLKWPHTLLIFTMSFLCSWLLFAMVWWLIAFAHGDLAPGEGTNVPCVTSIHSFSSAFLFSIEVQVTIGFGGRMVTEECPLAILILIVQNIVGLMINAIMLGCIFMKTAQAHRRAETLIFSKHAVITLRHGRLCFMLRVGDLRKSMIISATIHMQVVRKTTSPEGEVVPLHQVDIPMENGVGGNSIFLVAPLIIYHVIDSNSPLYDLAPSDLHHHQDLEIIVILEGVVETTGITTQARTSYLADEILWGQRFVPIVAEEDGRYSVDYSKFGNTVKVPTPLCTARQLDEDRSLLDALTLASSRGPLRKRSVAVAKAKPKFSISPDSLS
# assay-text: [3H]glibenclamide binding to ATP-dependent potassium channels of rat cerebral cortex
# experimental-conditions: 1 h; 300 nM; specific displacement of [3H]glibenclamide 0.1 nM; read-out: KATP binding (300 nM)
Value expressed in %; do not type the unit.

inhibition at 0.3 µM for CCCCC(NC(=O)Cc1ccccc1OCCCC(C)(C)C(=O)O)c1ccccc1N1CCCCC1 (stereo not drawn) ?
25

Ok, now CC(C)(Oc1ccc(CC(=O)NC(c2ccccc2N2CCCCC2)C2CCCCC2)cc1)C(=O)O (stereo not drawn)
47

Ok, now CCCCC(NC(=O)Cc1ccc(OC(C)(C)C(=O)O)cc1)c1ccccc1OC (stereo not drawn)
79

Ok, now CC(C)CC(NC(=O)Cc1ccc(OC(C)(C)C(=O)NS(C)(=O)=O)cc1)c1ccccc1N1CCCCC1 (stereo not drawn)
94

Ok, now Cc1cccc(CC(NC(=O)Cc2ccc(OC(C)(C)C(=O)O)cc2)c2ccccc2N2CCCCC2)c1 (stereo not drawn)
27

Ok, now CCCCC(NC(=O)Cc1ccc(OC(C)(C)C(=O)NS(=O)(=O)C(F)(F)F)cc1)c1ccccc1N1CCCCC1 (stereo not drawn)
49
